- System: Schistosoma mansoni thioredoxin glutathione reductase (TGR)
- Measurement Notes: qHTS Assay for the Inhibitors of Schistosoma Mansoni Peroxiredoxins; also: nearly all actives have a fitted effect of over 60% in size
- Measurement Context: purified TGR, DTNB reduction, TNB absorbance 405 nm; series mostly up to 114 µM
Hit rate of the full screen: of about 360,000 compounds, about 11,000 (3.1%) were called active. Inconclusive results (about 4%) are left out. Calls follow the shape of the dose curve; as a rule, active = well fitted inhibition curve with a large enough effect; inconclusive = small, poorly fitted or top-dose-only effect; inactive = no such curve, though single readings can be large or run the other way. The full list was thinned out, with actives kept by preference.
Pick one and only one: YES = active, NO = inactive

Please share the test call associated with NC1=NC(c2cc(F)cc(F)c2)n2c(nc3ccccc32)N1 (stereo unspecified) .
NO

Please share the test call associated with CC(OC(=O)CN1C(=O)COc2ccccc21)C(=O)NCc1ccc(F)cc1 (stereo unspecified) .
NO

Please share the test call associated with `O=C(CSc1nc(=O)[nH]c2c1CCCC2)Nc1cc(C(F)(F)F)ccc1Cl` .
NO

Please share the test call associated with `COC1=C(N2CCOCC2)C(=O)c2ccccc2C1=O` .
YES

Please share the test call associated with `CC(C)N(C)C(=O)CCc1nnc(CCc2c[nH]c3ccccc23)o1` .
NO

Please share the test call associated with `CC(C)Cn1c(=O)c2ccccc2n2c(CCC(=O)N3CCN(c4cccc(Cl)c4)CC3)nnc12` .
NO

Please share the test call associated with CCC/C=C(\CCC)C(NC(=O)Cc1ccccc1)c1ccc(C(=O)OC)cc1 (stereo unspecified) .
NO

Please share the test call associated with CC(C)CCN1CCN(Cc2ccc(C(F)(F)F)cc2)CC1CCO (stereo unspecified) .
NO

Please share the test call associated with `COc1ccc(Cc2nc3ccc(C(=O)NCc4ccccc4C)cc3o2)cc1` .
NO

Please share the test call associated with `CCc1nn(CC(=O)Nc2cc(C)cc(C)c2)c(=O)c2cc3sccc3n12` .
NO

Please share the test call associated with `COc1ccc(-c2onc(C)c2C)cc1S(=O)(=O)NCCc1ccccc1` .
NO

Please share the test call associated with CC(C)CCN1CCN(C/C=C/c2ccco2)CC1CCO (stereo unspecified) .
YES

Please share the test call associated with `O=C(CN1C(=O)COc2ccc(Cl)cc21)Nc1ccc(N2CCOCC2)cc1` .
NO

Please share the test call associated with `CCN1CCC(N(Cc2ccc(F)cc2)C(=O)Nc2cc(C)ccc2C)CC1` .
NO

Please share the test call associated with `CC(=O)c1c(C)n(S(=O)(=O)c2ccc(Cl)cc2)c2ccc(NS(=O)(=O)c3ccc(Cl)cc3)cc12` .
NO

Please share the test call associated with COc1ccc(NC(=O)C2CCCN(S(=O)(=O)c3c(C)[nH]c(=O)[nH]c3=O)C2)c(OC)c1 (stereo unspecified) .
NO

Please share the test call associated with CC(=O)c1ccc(OC(NC(=O)Cc2ccccc2)C(Cl)(Cl)Cl)cc1 (stereo unspecified) .
YES

Please share the test call associated with `O=C(CN1CCN(S(=O)(=O)/C=C/c2ccccc2)CC1)NC(=O)NCc1ccco1` .
YES

Please share the test call associated with `Cc1ccc(CNS(=O)(=O)c2ccc(C(=O)N(C)C)s2)cc1` .
NO

Please share the test call associated with `CCc1ccc(CNC(=O)c2cc3c(=O)n(CC)c4ccccc4c3s2)cc1` .
NO

Please share the test call associated with `O=C(CN1C(=O)COc2ccc(S(=O)(=O)N3CCOCC3)cc21)N1CCN(c2cccc(Cl)c2)CC1` .
NO

Reference source for all entries: PubChem BioAssay AID485364
